- Test system: cancer cell lines with wild-type p53 / mutated or deleted p53 (ATCC)
- method summary: Cell growth assay (WST-8), other cancer cell lines
- Format: cell-based
- condition description: Homo sapiens, PC-3, Table 19A; PC-3 cells, deleted p53, cell growth; read-out: PC-3 (deleted p53) IC50
Friendly reminder: IC50 below 5 µM is 1, at or above is -1.

• CNC(=O)[C@@H]1N[C@H](CC(C)(C)C)[C@]2(C(=O)Nc3cc(Cl)c(F)cc32)[C@H]1c1cccc(Cl)c1 = -1
• CN1CCN(C(=O)[C@@H]2N[C@H](CC(C)(C)C)[C@]3(C(=O)Nc4cc(Cl)c(F)cc43)[C@H]2c2cccc(Cl)c2)CC1 = 1
• C[C@@H](N)C(=O)OC1CCC(NC(=O)[C@@H]2N[C@H](CC(C)(C)C)[C@]3(C(=O)Nc4cc(Cl)ccc43)[C@H]2c2cccc(Cl)c2F)CC1 (stereo partly drawn) = 1
• CC(C)(C)C[C@H]1N[C@@H](C(=O)NCCCN2CCCCC2)[C@H](c2cccc(Cl)c2F)[C@@]12C(=O)Nc1cc(Cl)ccc12 = 1

Lab note: IC50 threshold 5 µM. Does this compound come in strictly under it? CC(C)(C)C[C@H]1N[C@@H](C(=O)N[C@H]2CC[C@@H](O)C2)[C@H](c2cccc(Cl)c2)[C@@]12C(=O)Nc1cc(Cl)c(F)cc12
-1
